Reference for the values: the supplement of paper PMC9170038

A collection of sequences and their measured apparent KD of MS2 coat protein
System: MS2 coat protein
Assay: apparent KD of MS2 coat protein; higher = weaker reporter binding
Conditions: Eterna round: R107; input ligand: none

Sequence code: GACAGAAACUGAAGGAGCGAGGUAAAACGGGAUGAGCAAACAUGAGGAUCACCCAUGUGGCCUCAGGUAGGUCGCAGAAAGAAAC [Exclusion Arginine B GF24]
apparent KD of MS2 coat protein, nM: 130
//
Sequence code: UACCGAUGAAGAAGGAGCGUAUGCUUAUAUGAUGGUAACAUGAGGAUCACCCAUGUCAGUAUACAGGUAGGUCGCUUCAUCGGUA [EAB NP+V+V2 #22]
apparent KD of MS2 coat protein, nM: 59.1
//
Sequence code: GGAUGCCACUAUGGAUAGCACGAUGCCGAUACCAGCUAGGAAACUAGCCCUUGGCAGCGGAACAUGAGGAUCACCCAUGUAUCCU [EThA NP+V+V2 #8]
apparent KD of MS2 coat protein, nM: 24.2
//
Sequence code: UCGGGCAGAGCGGCCGCCACUGUUUGGCGUGCGGAUGAAGGAACAUGAGGAUCACCCAUGUAGAUUAGGACCGGGCUUGCGGAGA [ddrmullin]
apparent KD of MS2 coat protein, nM: 13.8
//
Sequence code: GGAACAUGAGGAUCACCCAUGUCGAGUGGUCGAGGACCGGUACGGCCGCCACUCGACAUUGCUCAUAGGUAUAGCGUGAGAACGC [Same State - Tryptophan 1]
apparent KD of MS2 coat protein, nM: 326
//
Sequence code: AGUGAUGACCGAAGGAGCGCGGGAAACAUGAGGAUCACCCAUGUACUCCUCAGUGUUAUAACGCAGGUAGGUCGCGGUUAUGGCU [X-ArgiB-ms2@26]
apparent KD of MS2 coat protein, nM: 180
//
Sequence code: AAUGGUGGAACGAAGUACAGGAGUACAAAUCGAGGACCGGUACGGCCGCCACUCGCGAAAGAACAUGAGGAUCACCCAUGUAAAA [theeternabot_exclusion_MS2_Trp_A_34]
apparent KD of MS2 coat protein, nM: 8.09

====

System: MS2 coat protein
Experiment: apparent KD of MS2 coat protein, switch OFF state (with FMN for OFF switches, without FMN for ON switches); designed switch direction (-1 OFF switch, 1 ON switch): -1; higher = weaker reporter binding
Settings: FMN input: 0 or 200 uM; Eterna round: R93 (includes R88 designs)
Would you mind labelling by apparent KD of MS2 coat protein? At or over 30 nM is fulfilled, under is not fulfilled.

Sequence code: AAAACUGGAGGAUAUACGUACAUGUCAAAAGACGUGAAGGGACAUGAGGAUCACCCAUGUAGAAGGCUAGAAAA [JL Stem Breaker 8]
Class assignment: not fulfilled
--
Sequence code: AAAAAGCUAGGAUAUACAUGAAAAAAAAAAAAGUAAAAAAAACAUGAGGAUCACCCAUGUAGAAGGAGCAAAAA [water's exclusion 2 last]
Class assignment: fulfilled
--
Sequence code: AAAGGAUCAGGAUAUGUGUGGAAAAAGUGUAUCCAAAAAAAACAUGAGGAUCACCCAUGUAGAAGGGAUCCAAA [Mod 2 of Normal (20/19) by Nando, Round 1]
Class assignment: fulfilled
--
Sequence code: AAAAGGUGAGGAUAUUCGAAAAUAAAAGAAAAUAAAAGAAAGAAGAAGGCACAUGAGGAUCACCCAUGUAAUAA [LROPPY Exclusion 4 - v02_deltaG=2.94 break up the As mixed]
Class assignment: not fulfilled
--
Sequence code: AAAAAAGGAGGAUAUACGUACAUGUCAAAAGACGUGAAGGGACAUGAGGAUCACCCAUGUAGAAGGCUUAAAAA [JL Stem Breaker 6]
Class assignment: not fulfilled
--
Sequence code: AAAGUGUGAGGAUAUGUCAAAGGUCACGAAAGUGACAAAGGGCAGAAGGUACAUGAGGAUCACCCAUGUAAAAA [Opal 1]
Class assignment: not fulfilled
